Source of measurements: the supplement of paper PMC11246515

Let's look at some sequences and their measured total protein half-life in vivo.
protocol.summary: total protein half-life in vivo (active degradation + dilution); higher = more stable protein
settings: wild type E. coli NCM3722; growth: P-lim chemostat; doubling time 6 h
Could you give me the number in h? Just the number is fine.

# biosequence, unit.tag, total protein half-life in vivo
rows = [
    ("MELIFLGTSAGVPTRTRNVTAILLNLQHPTQSGLWLFDCGEGTQHQLLHTAFNPGKLDKIFISHLHGDHLFGLPGLLCSRSMSGIIQPLTIYGPQGIREFVETALRISGSWTDYPLEIVEIGAGEILDDGLRKVTAYPLEHPLECYGYRIEEHDKPGALNAQALKAAGVPPGPLFQELKAGKTITLEDGRQINGADYLAAPVPGKALAIFGDTGPCDAALDLAKGVDVMVHEATLDITMEAKANSRGHSSTRQAATLAREAGVGKLIITHVSSRYDDKGCQHLLRECRSIFPATELANDFTVFNV [P0A8V0]", "h", 5.54),
]

Note: attention shifts to another entry.
Requested field: total protein half-life in vivo. Item: "MSTLGHQYDNSLVSNAFGFLRLPMNFQPYDSDADWVITGVPFDMATSGRAGGRHGPAAIRQVSTNLAWEHNRFPWNFDMRERLNVVDCGDLVYAFGDAREMSEKLQAHAEKLLAAGKRMLSFGGDHFVTLPLLRAHAKHFGKMALVHFDAHTDTYANGCEFDHGTMFYTAPKEGLIDPNHSVQIGIRTEFDKDNGFTVLDACQVNDRSVDDVIAQVKQIVGDMPVYLTFDIDCLDPAFAPGTGTPVIGGLTSDRAIKLVRGLKDLNIVGMDVVEVAPAYDQSEITALAAATLALEMLYIQAAKKGE"
6.1

====

protocol.summary: total protein half-life in vivo (active degradation + dilution); higher = more stable protein
settings: wild type E. coli NCM3722; growth: C-lim chemostat; doubling time 3 h
Let's look at some sequences and their measured total protein half-life in vivo.
Could you give me the number in h? Just the number is fine.

# biosequence, total protein half-life in vivo, h
measured = [
    ("MSQTVHFQGNPVTVANSIPQAGSKAQTFTLVAKDLSDVTLGQFAGKRKVLNIFPSIDTGVCAASVRKFNQLATEIDNTVVLCISADLPFAQSRFCGAEGLNNVITLSTFRNAEFLQAYGVAIADGPLKGLAARAVVVIDENDNVIFSQLVDEITTEPDYEAALAVLKA [P0A862]", 3.16),
    ("MAIALVTGGSRGIGRATALLLAQEGYTVAVNYQQNLHAAQEVMNLITQAGGKAFVLQADISDENQVVAMFTAIDQHDEPLAALVNNAGILFTQCTVENLTAERINRVLSTNVTGYFLCCREAVKRMALKNGGSGGAIVNVSSVASRLGSPGEYVDYAASKGAIDTLTTGLSLEVAAQGIRVNCVRPGFIYTEMHASGGEPGRVDRVKSNIPMQRGGQAEEVAQAIVWLLSDKASYVTGSFIDLAGGK", 3.03),
]

Requested field: total protein half-life in vivo. Item: "MKTAYIAKQRQISFVKSHFSRQLEERLGLIEVQAPILSRVGDGTQDNLSGCEKAVQVKVKALPDAQFEVVHSLAKWKRQTLGQHDFSAGEGLYTHMKALRPDEDRLSPLHSVYVDQWDWERVMGDGERQFSTLKSTVEAIWAGIKATEAAVSEEFGLAPFLPDQIHFVHSQELLSRYPDLDAKGRERAIAKDLGAVFLVGIGGKLSDGHRHDVRAPDYDDWSTPSELGHAGLNGDILVWNPVLEDAFELSSMGIRVDADTLKHQLALTGDEDRLELEWHQALLRGEMPQTIGGGIGQSRLTMLLLQLPHIGQVQCGVWPAAVRESVPSLL"
2.53
